The reported numbers originate from paper PMC12118597.

# Test method notes: Microsomal stability
# Assay type: in vitro ADME, mouse
# Study conditions: intrinsic clearance from t1/2
Measured parameter: CLint (mouse) (µl/min/mg protein)

Molecule | Measured parameter | Scale unit | Value relation sign | Reported
CC(C)(O)[C@H]1CCCN1c1ncnc2[nH]ccc12 | CLint (mouse) | µl/min/mg protein | = | 73
O=C(Nc1ccc(C(=O)N[C@H]2c3cccc(O)c3C[C@H]2C(=O)O)cc1)NC1CC1 [AVI-92, reference compound] | CLint (mouse) | µl/min/mg protein | < | 11.6
Cc1c[nH]c2ncnc(NCC3(O)CCCCC3)c12 | CLint (mouse) | µl/min/mg protein | = | 185
O=C1CCCN1Nc1ncnc2[nH]c3cc(F)ccc3c12 [AVI-219, reference compound] | CLint (mouse) | µl/min/mg protein | = | 53.1
C[C@H]1CCCN(c2ncnc3[nH]ccc23)[C@H]1CO | CLint (mouse) | µl/min/mg protein | = | 44.4
CC(c1ccccc1)C(CO)Nc1ncnc2[nH]ccc12 (stereo not drawn) | CLint (mouse) | µl/min/mg protein | = | 166.4

----------
# Target entity: SARS-CoV-2 NSP3 macrodomain (Mac1) (Severe acute respiratory syndrome coronavirus 2, UniProt P0DTD1)
# Assay type: binding
# Study conditions: crystal soak 10 mM; DMSO background map
Measured parameter: PanDDA run, DMSO background map: 1-BDC

Molecule | Reported
OCC(Cc1cncs1)Nc1ncnc2[nH]ccc12 (centres unmarked) | 0.15
OCC(CC(O)c1ccccc1)Nc1ncnc2[nH]ccc12 (centres unmarked) | 0.17
OCC(CC1CCCO1)Nc1ncnc2[nH]ccc12 (centres unmarked) | 0.23
CCCC(CO)Nc1ncnc2[nH]ccc12 (centres unmarked) | 0.16
OCC(O)C1CCCN1c1ncnc2[nH]ccc12 (centres unmarked) | 0.18
OCC(CC1CCOC1)Nc1ncnc2[nH]ccc12 (centres unmarked) | 0.17
OCC(Nc1ncnc2[nH]ccc12)C1CCC1 (centres unmarked) | 0.13
NC(=O)C1(O)CCN(c2ncnc3[nH]ccc23)C1 (centres unmarked) | 0.22
Cn1cc(CC(CO)Nc2ncnc3[nH]ccc23)cn1 (centres unmarked) | 0.15
OC[C@@H]1C[C@H](F)CN1c1ncnc2[nH]ccc12 | 0.17
O[C@H]1CC[C@@H]2CCN(c3ncnc4[nH]ccc34)[C@@H]21 | 0.16

----------
# Target entity: SARS-CoV-2 NSP3 macrodomain (Mac1) (Severe acute respiratory syndrome coronavirus 2, UniProt P0DTD1)
# Format: binding
# Study conditions: occupancy estimate from PanDDA
# 2*(1-BDC) (%) per record follows

Molecule | 2*(1-BDC) (%)
CC(C)(O)C1N(c2ncnc3[nH]ccc23)CCC1(C)C (stereo not shown) [AVI-4126] | 32
OC1(CNc2ncnc3[nH]ccc23)CCOCC1 [AVI-4314] | 30
Cc1nn(C)cc1C1CC[C@H](CO)N1c1ncnc2[nH]ccc12 (stereo partly shown) [AVI-3733] | 20
CO[C@@H]1C[C@H](CO)N(c2ncnc3[nH]ccc23)C1 [AVI-3656] | 52
OCC(CC1CCC1)Nc1ncnc2[nH]ccc12 (stereo not shown) [AVI-3641] | 36
OCC1COCCN1c1ncnc2[nH]ccc12 (stereo not shown) [AVI-3717] | 28
CC(O)C(C)Nc1ncnc2[nH]ccc12 (stereo not shown) [AVI-5158] | 34
CCC(O)[C@H]1CCCN1c1ncnc2[nH]ccc12 (stereo partly shown) [AVI-3666] | 60
CC1CCN(c2ncnc3[nH]ccc23)C1CO (stereo not shown) [AVI-3655] | 42
Cc1cc2c(=O)n(CCN3C(=O)c4ccccc4S3(=O)=O)nnc2s1 [AVI-341] | 36
OCC(Nc1ncnc2[nH]ccc12)c1ccco1 (stereo not shown) [AVI-3659] | 32
CCC(CC)(CO)Nc1ncnc2[nH]ccc12 [AVI-3695] | 24
CCCC(CO)Nc1ncnc2[nH]ccc12 (stereo not shown) [AVI-3643] | 32
Cc1c[nH]c2ncnc(NCC3(O)CCOCC3)c12 [AVI-4194] | 18
CC(C)(C)[C@@H]1CCN(c2ncnc3[nH]ccc23)[C@H](CO)C1 [AVI-3722] | 22
OC1CCCN(c2ncnc3[nH]ccc23)C1 (stereo not shown) [AVI-3646] | 44
CC(O)C1CCCN1c1ncnc2[nH]ccc12 (stereo not shown) [AVI-4062] | 52
OCC(CC(O)c1ccccc1)Nc1ncnc2[nH]ccc12 (stereo not shown) [AVI-3642] | 34
OC1(CNc2ncnc3[nH]ccc23)CCC(F)(F)CC1 [AVI-4308] | 30
OCC(CC1CC1)Nc1ncnc2[nH]ccc12 (stereo not shown) [AVI-3662] | 28
CC1CCCC(O)(CNc2ncnc3[nH]ccc23)C1 (stereo not shown) [AVI-4307] | 34
O=C(O)C(F)(F)F.OC1([C@H]2CCCN2c2ncnc3[nH]ccc23)Cc2ccccc2C1 [AVI-3731] | 40
